- SYSTEM_UNDER_TEST: Mu-type opioid receptor (Cavia porcellus, UniProt P97266)
- Sequence (P97266 whole entry): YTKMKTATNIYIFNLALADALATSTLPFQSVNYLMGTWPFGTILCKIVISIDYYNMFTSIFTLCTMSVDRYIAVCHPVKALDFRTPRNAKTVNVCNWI
- ASSAY_INFO: Agonist activity at mu opioid receptor in guinea pig ileum
Non-standard residues stand in square brackets, D forms with d. Residues, ends and D or L forms follow the SMILES beside them. Dmt = Cc1cc(O)cc(C)c1C[C@H](N)C(=O)O; dCit = NC(=O)NCCC[C@@H](N)C(=O)O; NMeNle = CCCC[C@H](NC)C(=O)O
PROPERTY_MEASURED: IC50 (nM)
Numbers only, in nM.

Cc1cc(O)cc(C)c1C[C@H](N)C(=O)N[C@H](CCCNC(N)=O)C(=O)N[C@@H](Cc1ccccc1)C(=O)N(C)[C@@H](CCCCN)C(N)=O
1.01

Below is a list of compounds. For each, state its recorded IC50.
1. Cc1cc(O)cc(C)c1C[C@H](N)C(=O)N[C@H](CCCNC(N)=O)C(=O)N[C@H]1Cc2ccccc2CN([C@@H](CCCCN)C(N)=O)C1=O
2. CCCC[C@@H](C(N)=O)N(C)C(=O)[C@H](Cc1ccccc1)NC(=O)[C@@H](CCCNC(N)=O)NC(=O)[C@@H](N)Cc1c(C)cc(O)cc1C (H-[Dmt][dCit]F[NMeNle]-NH2)
3. Cc1cc(O)cc(C)c1C[C@H](N)C(=O)N[C@H](CCCNC(N)=O)C(=O)N[C@@H](Cc1ccccc1)C(=O)N[C@@H](CCCCN)C(N)=O

49
0.65
0.31

* * *

- ASSAY_INFO: Metabolic stability in mouse plasma assessed as compound recovery after 2 hrs
- Format: ADME, cell-free
- MEASUREMENT_CONTEXT: read-out: Stability
Non-standard residues stand in square brackets, D forms with d. Residues, ends and D or L forms follow the SMILES beside them. Dmt = Cc1cc(O)cc(C)c1C[C@H](N)C(=O)O; Nle = CCCC[C@H](N)C(=O)O
PROPERTY_MEASURED: remaining at 2 h (%)
Answers are plain numbers, in %.

Below are worked cases with known answers.
CCCC[C@H](NC(=O)[C@H](Cc1ccccc1)NC(=O)[C@@H](CCCN=C(N)N)NC(=O)[C@@H](N)Cc1c(C)cc(O)cc1C)C(N)=O (H-[Dmt][dR]F[Nle]-NH2)
90.2
Cc1cc(O)cc(C)c1C[C@H](N)C(=O)N[C@H](CCCNC(N)=O)C(=O)N[C@@H](Cc1ccccc1)C(=O)N[C@@H](CCCCN)C(N)=O
98.3
Cc1cc(O)cc(C)c1C[C@H](N)C(=O)N[C@H](CCCNC(=N)N)C(=O)N[C@@H](Cc1ccccc1)C(=O)N[C@@H](CCCCN)C(N)=O
94.7
Cc1cc(O)cc(C)c1C[C@H](N)C(=O)N[C@H](CCCNC(N)=O)C(=O)N[C@@H](Cc1ccccc1)C(=O)N(C)[C@@H](CCCCN)C(N)=O
104
Cc1cc(O)cc(C)c1C[C@H](N)C(=O)N[C@H](CCCN=C(N)N)C(=O)N[C@H]1Cc2ccccc2CN(CC(N)=O)C1=O
107

Please turn your attention to the following entry.
// query remaining at 2 h value for entry `Cc1cc(O)cc(C)c1C[C@H](N)C(=O)N[C@H](CCCNC(=N)N)C(=O)N[C@@H](Cc1ccccc1)C(=O)N(C)[C@@H](CCCCN)C(N)=O`
112
